Details: buffer; pH 7.4; 200.0 µM
Kindly state solubility kinetic for each of the entries shown.

Give solubility kinetic for each listed item.
1. COc1ccc(/C=C/C(=O)N2CCOCC2)cc1OC
2. CC[N+](CC)(CC)CC(=O)Nc1c(C)cccc1C.[Br-]
3. CC1(C)N([O-])C2=C(CCCC2)[N+]1=O
4. O=C(O)C(=O)O.c1ccc2cc(OCCCn3ccnc3)ccc2c1
5. CC(NCc1ccccc1C(F)(F)F)C(O)c1ccccc1.Cl (configuration not stated)
6. CN1C(N)=NC(=O)/C1=C/c1ccc(F)cc1
7. S=c1[nH]nc(Nc2ccccc2)s1

["> 41.6 µg/mL", "> 51.5 µg/mL", "> 27.3 µg/mL", "> 51.4 µg/mL", "> 51.9 µg/mL", "> 32.9 µg/mL", "> 31.4 µg/mL"]

====

Settings: buffer; pH 7.4; 200.0 µM
So basically: solubility kinetic at 30 µg/mL or higher? That is fulfilled. Lower than 30 µg/mL? That is not fulfilled.

Please tell me: is the compound O=C(CN1CCCCC1)NNC(=O)c1ccc([N+](=O)[O-])cc1 at or over 30 µg/mL in terms of solubility kinetic? fulfilled

For this compound, is measured solubility kinetic 30 µg/mL or higher? OCCN(CC#CC(O)(c1ccccc1)c1ccccc1)CCO fulfilled

Reported solubility kinetic at or above 30 µg/mL? Cc1cc(=O)c2ccc(C(F)(F)F)cc2[nH]1 fulfilled

Hi team, for CCOC(=O)c1c(C)n(C)c2c1cc(OC(C)=O)c1ccccc12 , is the recorded solubility kinetic at or above 30 µg/mL? not fulfilled

Is solubility kinetic at least 30 µg/mL? Consider COc1ccc(CNc2ncnc3cc(OC)c(OC)cc23)cc1OC fulfilled

API: above_or_equal(metric=solubility kinetic, cutoff=30 µg/mL) for item O=S1(=O)N=C2CCCCCN2C(c2ccc(F)cc2)N1 (centres undefined) fulfilled

Textbook exercise: given the entry N#Cc1cccc(C(=O)OCC(=O)NCc2ccco2)c1 , state whether its solubility kinetic is greater than or equal to 30 µg/mL. fulfilled

Record COCCn1c(SCC(=O)c2ccccc2)nc2c(c1=O)SCC2 ; criterion: solubility kinetic no lower than 30 µg/mL. Met? fulfilled

hey, is solubility kinetic for this one >= 30 µg/mL? O=C(Cn1cc([N+](=O)[O-])ccc1=O)NCC(=O)Nc1ccc(F)c(F)c1F not fulfilled

Test whether the compound CCN(CC(=O)Nc1cccc(OC)c1)C(=O)c1ccco1 records solubility kinetic of 30 µg/mL or higher. fulfilled

Quick check: does COc1ccc(C(CNC(=O)c2cccc(S(=O)(=O)N3CCc4ccccc43)c2)N(C)C)cc1 (centres undefined) have solubility kinetic greater than or equal to 30 µg/mL? fulfilled

====

Conditions: buffer; pH 7.4; 200.0 µM
Would you kindly list solubility kinetic for each of these compounds?

Here's what some known entries look like.
Compound: Cc1[nH]c2ccc(C(=O)NCc3ccccn3)cc2c1C
Observed property: solubility kinetic
Meas value: > 41.9 µg/mL
//
Compound: O=C(CCc1ccc(O)c(O)c1)N/N=C/c1ccc2c(c1)OCO2
Observed property: solubility kinetic
Meas value: > 49.2 µg/mL
//
Compound: COCCCNC(=O)c1cc(-c2cccnc2)nc2ccccc12
Observed property: solubility kinetic
Meas value: > 48.2 µg/mL

// each listed compound needs a value for solubility kinetic
1. CCN(CC(=O)Nc1ccccc1OC)C(=O)CC1CC2CCC1C2 (stereo not given)
2. COc1cc2nc(CCc3ccccc3)oc(=O)c2cc1OC
3. CCCN(CCC)C(=S)NC1CC2C=CC1C2 (stereo not given)
4. CC(C)c1ncc(C(O)c2ccccc2)n1C (stereo not given)

1. > 51.7 µg/mL
2. > 46.7 µg/mL
3. > 37.9 µg/mL
4. > 34.5 µg/mL

Please state, for each entry, its recorded solubility kinetic.
1. Cc1cc(C)cc(OCc2ccc(C(=O)NC3CCOC3=O)o2)c1 (stereo not given)
2. CCOC(=O)CCCCNC(=O)Nc1ccccc1
3. Cc1ccc(-c2c[n+]3c(n2-c2ccccc2)CCC3)cc1.[Br-]
4. CNC(=O)C(=O)Nc1cc2c3c(c1)CCC(=O)N3CCC2
5. Cc1ccc(Cl)cc1NC(=O)COC(=O)c1ccccc1O
6. Cl.NCCNC(=O)c1c(O)c2cccc3c2n(c1=O)CCC3
7. Cc1cc(O)cc(=O)n1CCc1ccccc1

1. > 49.4 µg/mL
2. > 39.6 µg/mL
3. > 53.3 µg/mL
4. 19 µg/mL
5. < 0.7 µg/mL
6. 48.3 µg/mL
7. > 34.4 µg/mL

Entry Cc1cccc(OCC(=O)N2CCc3ccccc3C2)c1 has what solubility kinetic? 34.6 µg/mL

These measurements were taken from PubChem BioAssay AID1996.
